target: Bovine cardiac myosin (Bos taurus (Bovine), UniProt Q9BE39); assay: Cardiac muscle myosin II actin-activated ATPase assay (NADH-coupled); type: biochemical; conditions: cardiac myosin II Ki over nonmuscle myosin II EC50
Sequence (Q9BE39 whole entry): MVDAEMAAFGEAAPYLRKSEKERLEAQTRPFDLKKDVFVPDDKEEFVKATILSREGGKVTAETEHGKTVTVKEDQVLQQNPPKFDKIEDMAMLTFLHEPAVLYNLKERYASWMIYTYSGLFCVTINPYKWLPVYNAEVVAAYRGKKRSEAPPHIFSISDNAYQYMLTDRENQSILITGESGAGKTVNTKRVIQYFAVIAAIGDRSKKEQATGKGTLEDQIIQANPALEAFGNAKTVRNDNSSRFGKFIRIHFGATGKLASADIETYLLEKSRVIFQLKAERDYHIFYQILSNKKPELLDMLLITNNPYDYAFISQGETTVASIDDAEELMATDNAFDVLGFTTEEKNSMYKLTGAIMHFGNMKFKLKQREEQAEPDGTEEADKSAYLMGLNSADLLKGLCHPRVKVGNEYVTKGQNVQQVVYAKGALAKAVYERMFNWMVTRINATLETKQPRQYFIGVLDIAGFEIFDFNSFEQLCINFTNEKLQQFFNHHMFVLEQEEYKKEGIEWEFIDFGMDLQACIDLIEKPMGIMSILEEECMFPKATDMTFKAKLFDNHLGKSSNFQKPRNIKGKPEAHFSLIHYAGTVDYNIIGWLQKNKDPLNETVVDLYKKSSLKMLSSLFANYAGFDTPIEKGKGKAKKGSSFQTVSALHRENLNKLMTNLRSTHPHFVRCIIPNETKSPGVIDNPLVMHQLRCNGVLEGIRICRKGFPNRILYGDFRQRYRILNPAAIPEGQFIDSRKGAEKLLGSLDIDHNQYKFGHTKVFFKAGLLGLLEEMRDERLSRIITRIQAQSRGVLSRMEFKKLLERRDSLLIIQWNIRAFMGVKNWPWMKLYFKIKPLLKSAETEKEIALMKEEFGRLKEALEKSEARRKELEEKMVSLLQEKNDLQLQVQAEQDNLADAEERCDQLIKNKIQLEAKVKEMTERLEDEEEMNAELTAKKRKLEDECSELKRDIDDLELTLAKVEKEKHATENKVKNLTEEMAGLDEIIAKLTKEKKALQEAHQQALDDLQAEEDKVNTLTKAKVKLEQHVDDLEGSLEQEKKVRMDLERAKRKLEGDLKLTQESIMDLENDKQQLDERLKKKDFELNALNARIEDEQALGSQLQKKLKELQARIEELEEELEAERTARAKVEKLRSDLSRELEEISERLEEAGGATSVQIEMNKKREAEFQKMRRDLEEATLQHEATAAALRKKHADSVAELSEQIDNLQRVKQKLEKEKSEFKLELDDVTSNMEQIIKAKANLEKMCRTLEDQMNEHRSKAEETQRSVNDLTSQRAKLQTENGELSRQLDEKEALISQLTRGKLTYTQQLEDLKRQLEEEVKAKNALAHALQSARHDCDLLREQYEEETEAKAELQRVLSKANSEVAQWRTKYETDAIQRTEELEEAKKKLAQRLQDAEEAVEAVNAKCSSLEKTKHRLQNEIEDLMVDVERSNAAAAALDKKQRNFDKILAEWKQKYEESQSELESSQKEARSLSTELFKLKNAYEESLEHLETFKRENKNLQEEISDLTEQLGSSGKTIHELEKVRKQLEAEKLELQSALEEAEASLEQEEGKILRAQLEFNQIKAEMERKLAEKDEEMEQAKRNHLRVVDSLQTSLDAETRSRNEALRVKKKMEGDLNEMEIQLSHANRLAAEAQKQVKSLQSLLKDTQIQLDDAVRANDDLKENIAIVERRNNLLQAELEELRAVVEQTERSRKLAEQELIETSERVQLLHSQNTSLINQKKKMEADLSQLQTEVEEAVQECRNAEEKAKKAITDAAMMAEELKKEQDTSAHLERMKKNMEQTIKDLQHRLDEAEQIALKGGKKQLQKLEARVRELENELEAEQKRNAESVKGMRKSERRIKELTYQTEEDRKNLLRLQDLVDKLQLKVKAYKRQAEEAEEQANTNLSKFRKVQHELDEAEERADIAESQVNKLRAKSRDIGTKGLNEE
Sequence (P85100 whole entry partner): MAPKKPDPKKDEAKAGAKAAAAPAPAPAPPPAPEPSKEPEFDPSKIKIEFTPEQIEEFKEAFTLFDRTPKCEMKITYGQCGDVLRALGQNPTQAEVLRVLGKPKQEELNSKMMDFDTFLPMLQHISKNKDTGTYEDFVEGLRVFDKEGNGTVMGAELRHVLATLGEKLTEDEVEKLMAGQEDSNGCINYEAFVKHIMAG
Sequence (Q3SZE5 whole entry partner): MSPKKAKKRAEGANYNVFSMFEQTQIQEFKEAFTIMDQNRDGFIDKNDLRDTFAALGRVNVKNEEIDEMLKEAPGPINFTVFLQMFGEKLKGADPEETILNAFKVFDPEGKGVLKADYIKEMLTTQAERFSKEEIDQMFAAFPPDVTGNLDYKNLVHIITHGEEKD
Quick list: Ratio CMMII:NMII Ki/EC50 per entry.
QUANTITY MEASURED: Ratio CMMII:NMII Ki/EC50

MOLECULE	QUANTITATIVE READOUT
Cc1cc2c(cc1C)C(=O)[C@]1(O)CCN(c3ccc4ncc(CO)cc4c3)C1=N2 [BPN-0028736]	6.9
Cc1cc2c(cc1C)C(=O)[C@]1(O)CCN(c3cnc4c(c3)NCCO4)C1=N2 [BPN-0028734]	5.0
Cc1cc2c(cc1C)C(=O)[C@]1(O)CCN(c3ccc4ccoc4c3)C1=N2 [BPN-0026664]	33.3
Cc1ncc(N2CC[C@@]3(O)C(=O)c4cc(C(F)(F)F)ccc4N=C23)s1 [BPN-0026404]	7.0
Cc1ccc2c(c1)C(=O)[C@]1(O)CCN(c3cccc(Br)c3)C1=N2 [BPN-0025240]	39.2
Cc1cc2c(s1)N=C1N(c3ccc4ncccc4c3)CC[C@@]1(O)C2=O [BPN-0027216]	11.5

---

molecular target: Rabbit skeletal myosin; assay: Skeletal muscle myosin II actin-activated ATPase assay; settings: 20 nM skeletal muscle myosin II; read-out: SKMMII KI
QUANTITY MEASURED: Ki (µM)

SMILES RECORD	UNIT ABBREVIATION	QUANTITATIVE READOUT
Cc1cc2cc(N3CC[C@@]4(O)C(=O)c5cc(F)c(C)cc5N=C34)ccc2o1	µM	4.4
COc1ccc(N2CC[C@@]3(O)C(=O)c4cc(C(F)(F)F)ccc4N=C23)cc1	µM	1.7
Cc1cc2c(cc1F)C(=O)[C@]1(O)CCN(c3cnn(C)c3)C1=N2	µM	3.6
O=C1c2c(sc3ccccc23)N=C2N(c3ccccc3)CC[C@@]12O	µM	5.9

---

biological target: Bovine cardiac myosin (Bos taurus (Bovine)); assay: Cardiac muscle myosin II actin-activated ATPase assay (NADH-coupled); assay type: biochemical; conditions: 300 nM cardiac myosin, 10 μM actin, 25° C.; read-out: CMMII KI
Quick list: Ki per entry.

COMPOUND	Ki [µM]
COc1cc(N2CC[C@@]3(O)C(=O)c4cc(Cl)ccc4N=C23)ccn1 [BPN-0026621]	40
Cc1ccc2c(c1)C(=O)[C@]1(O)CCN(c3cccc(Cl)c3)C1=N2 [BPN-0025059]	120
Cc1ccc2c(c1)C(=O)[C@]1(O)CCN(c3cnc4sccc4c3)C1=N2 [BPN-0027410]	25
Cc1cc2c(s1)N=C1N(c3ccc(C#N)c(Cl)c3)CC[C@@]1(O)C2=O [BPN-0027257]	40
Cc1ccc(N2CC[C@@]3(O)C(=O)c4cc(F)c(C)cc4N=C23)cc1 [BPN-0026579]	5
CNc1cc(N2CC[C@@]3(O)C(=O)c4cc(C)c(C)cc4N=C23)ccn1 [BPN-0028650]	40
Cc1cc2c(cc1C)C(=O)[C@]1(O)CCN(c3cnc(CO)c(C)c3)C1=N2 [BPN-0028733]	27
O=C1c2cc(Cl)ccc2N=C2N(c3ccc(Cl)cc3)CC[C@@]12O [BPN-0026640]	8
Cc1ccc2c(c1)C(=O)[C@]1(O)CCN(c3ccc4nsnc4c3)C1=N2 [BPN-0027394]	14
